Reference source: patent US7081473B2

Molecular target: human GIP receptor (Homo sapiens, UniProt P48546)
Sequence (P48546 22-466): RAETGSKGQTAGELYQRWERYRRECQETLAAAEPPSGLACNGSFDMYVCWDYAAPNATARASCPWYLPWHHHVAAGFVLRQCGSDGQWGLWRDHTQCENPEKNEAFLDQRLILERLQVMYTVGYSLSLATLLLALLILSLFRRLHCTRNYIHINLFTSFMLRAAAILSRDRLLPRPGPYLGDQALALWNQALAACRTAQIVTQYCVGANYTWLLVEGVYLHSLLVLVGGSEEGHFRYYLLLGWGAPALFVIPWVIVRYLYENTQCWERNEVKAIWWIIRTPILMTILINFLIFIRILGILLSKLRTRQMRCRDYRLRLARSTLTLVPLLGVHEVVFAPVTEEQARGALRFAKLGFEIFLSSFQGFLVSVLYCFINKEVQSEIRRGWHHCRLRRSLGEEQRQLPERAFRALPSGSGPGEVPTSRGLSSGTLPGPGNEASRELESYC
Assay: Inhibition of cAMP production by GIP stimulation in human GIP receptor-expressing CHO cells
Settings: 100 pM GIP, 37° C., 30 minutes, human GIP receptor-expressing CHO cells; read-out: IC50 (concentration of the compound at which the production of cAMP by GIP is inhibited by 50%)
pIC50: −log10 of the molar value.
readout: pIC50

In the examples that follow, each entry is paired with its recorded pIC50.
query-smiles: Cc1cc(C)c(C)c(Cn2ccc3c(/C=N/NC(=O)c4ccc(O)c(C#N)c4)cccc32)c1C
pIC50: 8.20

query-smiles: COc1ccc(/C=N/NC(=O)c2ccc(O)c(Cl)c2)c2ccccc12
pIC50: 6.25

P. O=C(N/N=C/c1ccc2c(ccn2Cc2ccc(Cl)s2)c1)c1ccc(O)c(Cl)c1
Q. O=C(N/N=C/c1ccccc1Br)c1ccc(O)cc1
-- ask Parameter check: reported pIC50 is higher for which label, P or Q ? Pick one and reply with its label.
-- reply P
(P: 6.36, Q: 4.72)
